Data origin, for the record: paper PMC7318243

- Subject of test: KRAS^G12C (Homo sapiens, UniProt P01116, G12C)
- Construct: KRASG12C (aa 1–169, G12C) were produced for the biochemical assay
- Sequence (P01116 1-169 isoform P01116-2 G12C): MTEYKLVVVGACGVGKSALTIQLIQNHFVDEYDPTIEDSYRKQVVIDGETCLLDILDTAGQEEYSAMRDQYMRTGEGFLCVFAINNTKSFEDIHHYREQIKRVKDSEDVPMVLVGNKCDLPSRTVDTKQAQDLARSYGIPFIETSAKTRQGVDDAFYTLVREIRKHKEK
- Measurement description: Biochemical assay: KRAS^G12C activation by SOS1CAT (HTRF, fluorescent GTP loading)
- Condition set: 180 min pre-incubation with KRAS before addition of SOS1
Measured endpoint: pIC50
Answers are plain numbers, as −log10 of the molar value.

# Compound, pIC50
data = [
    ("C=CC(=O)N1CCC(c2cc3ccc(-c4ccc(F)cc4F)cc3c(=O)[nH]2)C1 (stereo not shown) [Compound 3]", 5.30),
    ("C=CC(=O)N1CCC(c2nc3ccc(-c4c(O)cccc4F)cc3c(=O)[nH]2)C1 (stereo not shown) [Compound 11]", 5.31),
    ("C=CC(=O)N1CCC(c2cc3cc(Cl)c(-c4c(O)cccc4F)cc3c(=O)[nH]2)C1 (stereo not shown) [Compound 7]", 4.84),
]

Now let's try a different one.
Exercise: Record C=CC(=O)N1CCC(c2cc3cnc(-c4c(O)cccc4F)cc3c(=O)[nH]2)C1 (stereo not shown) [Compound 13] : what is its pIC50 with KRAS^G12C (Homo sapiens, UniProt P01116, G12C)?
Solution: 5.89

----------
- Subject of test: KRAS^G12C (Homo sapiens, UniProt P01116, G12C)
- Construct: KRASG12C (aa 1–169, G12C) were produced for the biochemical assay
- Measurement description: Biochemical assay: KRAS^G12C activation by SOS1CAT (HTRF, fluorescent GTP loading)
- Condition set: 180 min pre-incubation with KRAS before addition of SOS1
pIC50: −log10 of the molar value.
Measured endpoint: pIC50

# Compound, Experimental value
records = [
    ("C=CC(=O)N1CCC(c2cc3ccc(-c4cccc5ncccc45)cc3c(=O)[nH]2)C1 (stereo not shown)", "< 4.80"),
    ("C=CC(=O)N1CCC(c2cc3ccc(-c4c(O)cccc4F)cc3c(=O)[nH]2)CC1", "< 4.70"),
    ("C=CC(=O)N1CCC(c2cc3ccc(-c4c(O)cccc4F)cc3c(=O)n2C)C1 (stereo not shown)", "< 4.70"),
]

Now let's try a different one.
Exercise: # lookup: pIC50 of C=CC(=O)N1CCCC(c2cc3ccc(-c4c(O)cccc4F)cc3c(=O)[nH]2)C1 (stereo not shown)
Solution: < 4.70
